cytotoxicity at 10 µM values by entry
Assay: Toxicity liver stage against HepG2, at 10uM
Assay type: cell-based
Set-up: test concentration 10 uM, cell line HepG2-A16-CD81EGFP
Details: human, HepG2-A16-CD81EGFP cells; read-out: INHIBITION

compound	value_unit	cytotoxicity at 10 µM
CN1CCOC(CNCc2cccc(OCC(F)(F)F)c2)C1 (stereo unspecified)	%	-6.44
Cc1ccc(C2(CN3CCN(Cc4cnc(C)n4C)CC3)CC2)cc1	%	-3.99
O=C(c1cccnc1-n1cncn1)N1CCN(c2ccccc2)CC1	%	4.06
CC(CNC(=O)c1cccc(C#N)c1)N1CCc2ccccc21 (stereo unspecified)	%	-16.3
N#CCCN(C(=O)COC1CCCC1)C1CC1	%	-4.14
COc1cccc(CN(C)Cc2cc(C#N)ccc2F)c1OC	%	-5

---

Assay: Toxicity liver stage against HepG2, at 10uM
Assay type: cell-based
Parameters: test concentration 10 uM, cell line HepG2-A16-CD81EGFP
Details: human, HepG2-A16-CD81EGFP cells; read-out: INHIBITION
cytotoxicity at 10 µM values by entry

compound	value_unit	cytotoxicity at 10 µM
Cc1ncc(C(=O)N2CC[C@@]3(O)CCN(C4CCCCC4)C[C@H]3C2)cn1	%	-135
O=C1CC2(CCN(CCCF)CC2)CN1Cc1cc(F)cc(F)c1	%	16.3
O=C(NC1CCc2ccccc2C1)C1CCN(Cc2ccco2)CC1 (centres undefined)	%	-0.339
Cn1cc(N2CC3(CCN(S(=O)(=O)C4CC4)C3)CC2=O)cn1 (centres undefined)	%	-9.82
Cc1ccc2cc(C(=O)N3CCC(Nc4cccnn4)CC3)[nH]c2c1	%	-21
CCn1cc(CN2CCc3nc(-c4ccccn4)nc(O)c3C2)cn1	%	-2.25
CC(C)NC(=O)CC1CC2(CCN(CC3CC3)CC2)Oc2ccccc21 (centres undefined)	%	-2.42
O=S(=O)(C1CC1)N1CCn2c(Cn3cccn3)cnc2C1	%	12.4
CCS(=O)(=O)N1CC[C@@H]2[C@H]1CCC(=O)N2CCOC	%	-104
Cc1cc(-c2ccccc2C(=O)O)nc(C2CCCN(C)C2)n1 (centres undefined)	%	-5.03
CC1COc2ccccc2N1C(=O)c1cscn1 (centres undefined)	%	11.5
CC(=O)N1CCN(c2ccccc2CNc2cncc(C)c2)CC1	%	2.22
COCCN1CCC2(CCCN(c3ncc(F)cn3)C2)C1 (centres undefined)	%	4.71
CC(=O)N1CC[C@H]2CC(=O)N(Cc3ccc4c(c3)OCO4)CC[C@H]2C1	%	-3.91
COC(=O)N1CCCCC1C(=O)N1CCN(c2cccnc2)CC1 (centres undefined)	%	-10.6
O=C(CSC1CCc2ccccc2NC1=O)Nc1ccc(CCO)cc1 (centres undefined)	%	-3.77
O=C(O)c1ccnc(SCc2ccccc2)c1	%	-9.98
CCc1nc(CN2CCCN(C(=O)C3CCOC3)CC2)cs1 (centres undefined)	%	3.09
O=C(c1cccnc1-n1cccn1)N1CCN(CC2CC2)CC1	%	-4.71
O=C(N[C@H]1CN2CCC1CC2)c1cc(Cn2cnc3ccccc32)[nH]n1	%	-4.26
N#CCSCCCN1CCCN(C(=O)c2ccccc2)CC1	%	-3.74
O=C(O)C1CCCN(C(=O)CCn2ccc3c(Cl)cccc32)C1 (centres undefined)	%	11
CCCN1CCC(Cc2noc(-c3[nH]cnc3C)n2)CC1	%	1.34
CN1CCCN(C(=O)c2cnc(Cc3c(Cl)cccc3Cl)nc2O)CC1	%	-0.862

---

cytotoxicity at 10 µM values by entry
Experiment: Toxicity liver stage against HepG2, at 10uM
Assay type: cell-based
Design: test concentration 10 uM, cell line HepG2-A16-CD81EGFP
Conditions: human, HepG2-A16-CD81EGFP cells; read-out: INHIBITION

compound	cytotoxicity at 10 µM
CC(O)C(=O)N1CCN(c2ccccc2Cl)C(=O)C1 (stereo unspecified)	-1.59%
CCOc1ncccc1NC(=O)c1ccc(C)s1	-3.89%
Cc1ccc(C(=O)Nc2nn[nH]n2)s1	-0.246%
CS(=O)(=O)N1CCC(C(=O)N2CCC3(CC2)OCCCO3)CC1	1.91%
COc1cccc(-c2cc(C(=O)NCCn3nc(C)nc3C)[nH]n2)c1	-2.77%
O=c1cc(Cn2ccnc2)nc2n1CCCN(Cc1ccsc1)C2	-0.808%

---

Assay: Toxicity liver stage against HepG2, at 10uM
Type: cell-based
Parameters: test concentration 10 uM, cell line HepG2-A16-CD81EGFP
Details: human, HepG2-A16-CD81EGFP cells; read-out: INHIBITION
cytotoxicity at 10 µM values by entry
readout_label: cytotoxicity at 10 µM (%)

molecule	numeric_result
CCC1CN(CC(=O)N2CCCC2)CCN1CCOC (configuration not stated)	-4.22
COCCN(C)C[C@@H]1CN(C(=O)c2c(C)cccc2OC)C[C@@H]1CO	-4.26
Cc1nnc(C(C)N2CCCN(Cc3ccc(F)cc3)CC2)o1 (configuration not stated)	-4.92
Cc1csc(CN2CCC3(CC2)COC(COc2ccccn2)C3)n1 (configuration not stated)	-113
O=C(c1coc(COc2ccccc2F)n1)N1CCC[C@H]1CO	0.835
O=C(c1ccoc1)N1CC[C@H]2[C@H]1CCN2CC1CC1	2.5
N#Cc1c(F)cccc1N1CCN(S(=O)(=O)c2cccs2)CC1	14.2
CCn1cnnc1C1CCN(C(=O)c2cc(OC)ccc2OC)CC1	-4.2
CC(C)NC(=O)CCNC(=O)c1cc(Br)cn1C(C)C	4.33
O=C1CC(c2ccc(C(F)(F)F)cc2)c2snc(C(=O)O)c2N1 (configuration not stated)	10.7
Cc1cnn(C2CN(CC(O)COc3ccc(C#N)cc3)C2)c1 (configuration not stated)	1.81
CC(CNc1cncc(-n2cccn2)n1)N(C)c1ccccc1 (configuration not stated)	-4.48

---

cytotoxicity at 10 µM values by entry
Test: Toxicity liver stage against HepG2, at 10uM
Format: cell-based
Design: test concentration 10 uM, cell line HepG2-A16-CD81EGFP
Details: human, HepG2-A16-CD81EGFP cells; read-out: INHIBITION

molecule	value_unit	cytotoxicity at 10 µM
CC(C)(C(=O)NCC1CCN(Cc2cccnc2)C1)c1ccccc1 (centres undefined)	%	-1.66
CN1CCCC(Cc2nccnc2Cl)CC1 (centres undefined)	%	0.368
Cc1noc(C)c1CN(C)C(=O)NC(C)c1cccs1 (centres undefined)	%	1.41
O=c1cc(Cn2cncn2)nc2n1CCCN(CCN1CCCC1)C2	%	2.78
Cc1nc2cc(O)nn2c(C)c1CCC(=O)NCCCC(C)C	%	-1.52
Cn1ncc(C(=O)N2CCN(C(=O)c3ccco3)CC2)c1Cl	%	2.88
O=C(c1cc[nH]n1)N1CCCC1c1cc(Nc2ccccn2)n[nH]1 (centres undefined)	%	-13.8
CN1CCN(C2CCN(Cc3ccc(Cl)cc3)CC2)C1=O	%	7.9
CCN1CCN(c2nc(O)cc(Cc3ccccc3F)n2)CC1	%	-1.83
N#Cc1ccccc1C(=O)N1C[C@@H]2CC[C@H]1CN(c1ncccn1)C2	%	2.43
Cc1cnn(CC2CCN(CC(O)c3ccccc3)CC2)c1 (centres undefined)	%	-8.46
CCc1nnsc1C(=O)N1CCCN(Cc2ccccc2)CC1	%	7.57
COc1ccc(C(=O)N2CCN(C(=O)CCCc3cn[nH]c3)CC2)cc1	%	-5.63
NC(=O)c1cncc(Oc2cccc(CN3CCCC3)c2Cl)n1	%	-3.47
CSCCC1c2nc[nH]c2CCN1Cc1ccnc2ccccc12 (centres undefined)	%	13.2
CNc1cc2c(nn1)CCN(C(=O)c1cccc3c1OCCO3)C2	%	-5.13
Cc1n[nH]c(C)c1NC(=O)CN1CCCC1c1c(C)nn(C)c1C (centres undefined)	%	-19.2
O=C(N[C@H]1CN(C2CCOCC2)C[C@@H]1C1CC1)c1cc(O)no1	%	8.4
Cc1ccc(C(F)(F)F)cc1NCC(=O)Nc1c(C)nn(C)c1C	%	-1.86
COc1cc(Cl)c(C)cc1-n1nnc(C(=O)O)c1C	%	-8.29
CN(C)S(=O)(=O)c1ccc(=O)n(CC2CCCO2)c1 (centres undefined)	%	-3.54
CC(O)CNc1c(NCc2ccco2)c(=O)c1=O (centres undefined)	%	-3.04
Cc1ccc(CCCC(=O)N2CCC(CS(N)(=O)=O)CC2)s1	%	15.6
COc1ccc(CN2CCC3(CC2)CCN(CC(=O)N(C)C)C3=O)cc1	%	-0.449

---

cytotoxicity at 10 µM values by entry
Experiment: Toxicity liver stage against HepG2, at 10uM
Assay type: cell-based
Parameters: test concentration 10 uM, cell line HepG2-A16-CD81EGFP
Settings: human, HepG2-A16-CD81EGFP cells; read-out: INHIBITION
readout_label: cytotoxicity at 10 µM (%)

compound	numeric_result
Cc1ccc(N2CCC3(CCN(C(=O)c4ccccn4)CC3)CC2)nn1	0.255
CCc1nnc2n1CCN(C(=O)c1ccccc1OCC1CC1)C2	2.3
O=c1cc(C2CCNCC2)nc(CCc2ccccn2)[nH]1	-0.226
CCCN1CCN(Cc2cn(CCC(N)=O)c3ccccc23)CC1	4.7
CCn1cnnc1CNC(=O)N1CCC(CN2CCOCC2)CC1	-7
Cn1c(NC(=O)CNC(=O)C2CCCC2)nc2cc(Cl)ccc21	-4.53
Cc1ccc(O)c(CNc2cccc(CN3CCN(C)CC3)c2)n1	-2
CC(C)Cc1cc(NC(=O)c2n[nH]c3ccccc23)n(C)n1	-15.9
CN(C)c1cc(C(=O)N2CCCCC2)ccn1	-4.63
O=C(C1CC(F)(F)C1)N1CC[C@H]2OCC[C@@]2(COCC2CC2)C1	-3.09
O=C(NCc1cccnc1)C1=NOC2(CCCN(CCO)C2)C1 (configuration not stated)	5.66
CC(=O)c1ccc(CN2CC(Oc3ccccc3C)C2)cc1	-4.73

Numbers sourced from ChEMBL document CHEMBL4513216.
